Listing: TGI of selected compounds
# Tested on: EKVX NSCLC
# Protocol Notes: NCI tumour cell line growth inhibition, 48 h

Solved entries (count: 3):
[
  {
    "Compound": "COc1ccc(C2CC(=O)CC(c3ccc(OC)cc3)C23C(=O)NC(=O)NC3=O)cc1 (stereo not drawn)",
    "Observed": "> 100 µM"
  },
  {
    "Compound": "COc1cc(/C=C2\\CCC(C)C3C2=NN(C(C)=O)C3c2cc(OC)c(OC)c(OC)c2)cc(OC)c1OC (stereo not drawn)",
    "Observed": "> 100 µM"
  },
  {
    "Compound": "O=C(Nc1nc2ncn(CCI)c2c(=O)[nH]1)c1ccccc1",
    "Observed": "> 100 µM"
  }
]

Q: Fill in the blank: the reported TGI of C#Cc1cccc(Nc2ncnc3cc(OC)c(OCCCCCCC(=O)NO)cc23)c1 is ____.
A: 6.34 µM

Q: Fill in the blank: the reported TGI of CS(=O)(=O)Nc1ccc(N2Cc3cnc4ccc5[nH]ccc2c5c34)cc1 is ____.
A: > 100 µM

Q: Fill in the blank: the reported TGI of C=C(CCCCC)CN1CCCC1[C@@](C)(O)CC(=O)OCC (stereo partly drawn) is ____.
A: > 100 µM

Q: Fill in the blank: the reported TGI of O=C1N=c2ccccc2=C1c1c(O)[nH]c2ccccc12 is ____.
A: 71.6 µM

Q: Fill in the blank: the reported TGI of O=C1CN=C(C[N+](=O)[O-])c2ccccc21 is ____.
A: > 100 µM

Q: Fill in the blank: the reported TGI of CC(C)C1OC23CCCCC2C(C#N)(C#N)C1(C#N)C(=N)O3 (stereo not drawn) is ____.
A: 77.7 µM

Q: Fill in the blank: the reported TGI of NC(Cc1cccc([N+](=O)[O-])c1)C(=O)O (stereo not drawn) is ____.
A: > 100 µM

Q: Fill in the blank: the reported TGI of O=[N+]([O-])c1nccn1CC(O)c1ccc(F)cc1 (stereo not drawn) is ____.
A: > 100 µM

Q: Fill in the blank: the reported TGI of Cc1nnc(S(=O)(=O)c2ccc(N=Nc3c(N)nc(N)nc3N)cc2)s1 is ____.
A: > 100 µM

Q: Fill in the blank: the reported TGI of CC1=CC(/C=C(\C)CCCc2ccoc2)C2(OC(=O)C(C)=C2O)[C@H]2C1CC[C@@H]2C (stereo partly drawn) is ____.
A: > 100 µM

====

# Tested on: OVCAR-8 ovarian
# Protocol Notes: NCI tumour cell line growth inhibition, 48 h
Assay Metric: TGI (µM)
Report the value in µM with no unit label.

Solved entries (count: 5):
[
  {
    "Molecule": "CC(C)C1OC23CCCCC2C(C#N)(C#N)C1(C#N)C(=N)O3 (centres undefined)",
    "Reading Unit": "µM",
    "TGI": 49.8
  },
  {
    "Molecule": "C[C@H]1c2cccc(O)c2C(O)=C2C(=O)[C@]3(O)C(O)=C(C(N)=O)C(=O)[C@@H](N(C)C)[C@@H]3[C@@H](O)[C@@H]21",
    "Reading Unit": "µM",
    "TGI": 14.7
  },
  {
    "Molecule": "Oc1ccc2ccccc2c1/C=C/c1ccc2c(Br)cc(Br)c(O)c2n1",
    "Reading Unit": "µM",
    "TGI": 20.1
  },
  {
    "Molecule": "C[As](C)SC1OC(CO)C(O)C1O (centres undefined)",
    "Reading Unit": "µM",
    "TGI": 3.15
  },
  {
    "Molecule": "C=CC1CC12C(=O)C1OC2(C)C2C(=O)c3cc4ccccc4cc3C(=O)C12 (centres undefined)",
    "Reading Unit": "µM",
    "TGI": 92.3
  }
]

Next molecule, TGI to be filled in.
Q: Fill in the blank: the reported TGI of C=C(C)[C@@]12OC3(/C=C/C=C/CCCCC)O[C@@H]1[C@@H]1[C@@H]4O[C@]4(CO)[C@@H](O)[C@]4(O)C(=O)C(C)=C[C@H]4[C@@]1(O3)[C@H](C)[C@H]2OC(=O)c1ccccc1 is ____.
A: 7.08

Origin of values: PubChem BioAssay (NCI)
